Biological target: fatty acyl CoA: cholesterol acyl transferase (ACAT) (Rattus norvegicus)
Construct: The supernatant, containing the microsomal fraction, served as the source of the cholesterol-esterifying enzyme; from tissue; host or cells: rat adrenals (1,000 x g supernatant containing the microsomal fraction)
Test: Inhibition of enzymatic esterification of cholesterol (ACAT) in rat adrenal supernatant containing the microsomal fraction
Assay type: biochemical
Conditions: final concentration of test compound 5.2 μg./ml., percent inhibition of the ACAT enzyme compared to control values
measured-quantity: inhibition at 5.2 µg/mL (%)

1. O=C(CC(c1ccc(Cl)cc1)c1ccc(Cl)cc1)Nc1ccccc1 :: 50
2. COc1ccc(C(CC(=O)Nc2ccc(Cl)cc2)c2ccc(OC)cc2)cc1 :: 91
3. CCOC(=O)c1ccc(NC(=O)C=C(c2ccccc2)c2ccc(Cl)cc2)cc1 :: 92

----------
Target: fatty acyl CoA: cholesterol acyl transferase (ACAT) (Rattus norvegicus, UniProt O70536)
Construct: The supernatant, containing the microsomal fraction, served as the source of the cholesterol-esterifying enzyme; from tissue; host or cells: rat adrenals (1,000 x g supernatant containing the microsomal fraction)
Sequence (O70536 whole entry): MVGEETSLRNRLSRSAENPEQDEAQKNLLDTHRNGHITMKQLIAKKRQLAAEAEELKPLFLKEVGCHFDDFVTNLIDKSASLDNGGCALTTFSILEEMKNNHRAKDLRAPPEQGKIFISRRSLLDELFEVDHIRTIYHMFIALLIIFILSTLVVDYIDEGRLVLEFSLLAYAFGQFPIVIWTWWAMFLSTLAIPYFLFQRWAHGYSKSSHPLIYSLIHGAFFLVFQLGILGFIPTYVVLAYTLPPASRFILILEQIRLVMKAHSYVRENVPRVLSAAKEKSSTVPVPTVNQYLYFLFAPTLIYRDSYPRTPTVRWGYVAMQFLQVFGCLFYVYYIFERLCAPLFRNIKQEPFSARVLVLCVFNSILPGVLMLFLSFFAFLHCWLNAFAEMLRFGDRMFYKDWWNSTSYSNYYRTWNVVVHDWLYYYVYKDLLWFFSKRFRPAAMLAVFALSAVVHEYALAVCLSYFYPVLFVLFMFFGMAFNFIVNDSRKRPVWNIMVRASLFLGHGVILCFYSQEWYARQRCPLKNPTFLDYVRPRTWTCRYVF
Assay: Inhibition of enzymatic esterification of cholesterol (ACAT) in rat adrenal supernatant containing the microsomal fraction
Type: biochemical
Conditions: final concentration of test compound 5.2 μg./ml., percent inhibition of the ACAT enzyme compared to control values
# reported inhibition at 5.2 µg/mL; entries follow
measured-quantity: inhibition at 5.2 µg/mL (%)

1. CCOC(=O)c1ccc(NC(=O)CC(c2ccc(Cl)cc2)c2ccc(Cl)cc2)cc1 :: 94
2. CCOC(=O)c1ccc(NC(=O)C=C(c2ccc(Br)cc2)c2ccc(Br)cc2)cc1 :: 96
3. CC(=O)c1ccc(NC(=O)C=C(c2ccc(Cl)cc2)c2ccc(Cl)cc2)cc1 :: 86
4. O=C(C=C(c1ccccc1)c1ccccc1)Nc1ccc(C(=O)O)cc1 :: 66
5. Cc1ccc(C(CC(=O)Nc2ccccc2)c2ccc(C)cc2)cc1 [N--Phenyl-3,3-bis(p-tolyl)propionamide] :: 82
6. Cc1ccc(C(CC(=O)Nc2ccc(Cl)cc2)c2ccc(C)cc2)cc1 :: 89
7. CCOC(=O)c1ccc(NC(=O)CC(c2ccc(OC)cc2)c2ccc(OC)cc2)cc1 :: 91
8. O=C(C=C(c1ccc(F)cc1)c1ccc(F)cc1)Nc1ccc(C(=O)O)cc1 :: 79
9. COc1ccc(C(CC(=O)Nc2ccc(C(C)=O)cc2)c2ccc(OC)cc2)cc1 :: 82
